test: plasma pharmacokinetics in Japanese patients (HPLC-MS/MS); format: in vivo, human; conditions: human, plasma, oral, 200 mg, 200 mg QW (n = 9); Day 1; geometric mean (coefficient of variation); read-out: C48-h First dose
Observation Type: concentration at 48 h (nM)
Your answer is read as nM, so omit the unit and give the number.

Input line: Please give measured concentration at 48 h of the following entry: NC1(c2ccc(-c3nc4ccn5c(=O)[nH]nc5c4cc3-c3ccccc3)cc2)CCC1
Output line: 186

---

Assay: plasma pharmacokinetics in Japanese patients (HPLC-MS/MS)
Assay type: in vivo, human
Details: human, plasma, oral, 45 mg, 45 mg QOD (n = 3); Day 27; geometric mean (coefficient of variation); read-out: Cmax Last dose
Procedure: Blood samples for the QOD dosing schedule were collected for PK analyses just before and 2, 4, 6, 10, 24, and 48 h after MK-2206 dosing on days 1 and 27 of Cycle 1. After the final dose of MK-2206 during Cycle 1, blood samples were drawn 96, 144, and 192 h postdose during the 1-week rest period. […] The plasma concentrations were analyzed using high-performance liquid chromatography with tandem mass spectroscopy (HPLC–MS/MS) at Merck Research Labs, West Point, PA. […]
Observation Type: Cmax (nM)
Your answer is read as nM, so omit the unit and give the number.

Input line: Please give measured Cmax of the following entry: NC1(c2ccc(-c3nc4ccn5c(=O)[nH]nc5c4cc3-c3ccccc3)cc2)CCC1
Output line: 214

---

assay: plasma pharmacokinetics in Japanese patients (HPLC-MS/MS); type: in vivo, human; conditions: human, plasma, oral, 45 mg, 45 mg QOD (n = 3); Day 1; AUC0–48h; geometric mean (coefficient of variation); read-out: AUCt First dose
Observation Type: AUC(0-t)
Could you write the number and then its unit?

Input line: Please give measured AUC(0-t) of the following entry: NC1(c2ccc(-c3nc4ccn5c(=O)[nH]nc5c4cc3-c3ccccc3)cc2)CCC1
Output line: 1.85 µM·h

---

experiment: plasma pharmacokinetics in Japanese patients (HPLC-MS/MS); format: in vivo, human; conditions: human, plasma, oral, 60 mg, 60 mg QOD (n = 9); Day 27; geometric mean (coefficient of variation); read-out: C48-h Last dose
Observation Type: concentration at 48 h (nM)
Your answer is read as nM, so omit the unit and give the number.

Input line: Please give measured concentration at 48 h of the following entry: NC1(c2ccc(-c3nc4ccn5c(=O)[nH]nc5c4cc3-c3ccccc3)cc2)CCC1
Output line: 152

---

assay: plasma pharmacokinetics in Japanese patients (HPLC-MS/MS); type: in vivo, human; details: human, plasma, oral; 200 mg QW (n = 9); harmonic mean ± pseudo SD; read-out: Apparent terminal t½ (converted)
Observation Type: half-life

Input line: Please give measured half-life of the following entry: NC1(c2ccc(-c3nc4ccn5c(=O)[nH]nc5c4cc3-c3ccccc3)cc2)CCC1
Output line: 75.6 h

---

assay: plasma pharmacokinetics in Japanese patients (HPLC-MS/MS); type: in vivo, human; conditions: human, plasma, oral, 45 mg, 45 mg QOD (n = 3); Day 27; AUC0–48h; geometric mean (coefficient of variation); read-out: AUCt Last dose
Observation Type: AUC(0-t)

Input line: Please give measured AUC(0-t) of the following entry: NC1(c2ccc(-c3nc4ccn5c(=O)[nH]nc5c4cc3-c3ccccc3)cc2)CCC1
Output line: 8.49 µM·h

src = paper PMC4515243
